- ASSAY SUMMARY: Single dose escalation and multiple dosing pharmacokinetic study of LipoCol Forte
- CONDITION NOTES: human, plasma, oral, 1 LipoCol Forte capsule, AUC0–inf, healthy subjects, fed, single dose one LipoCol Forte capsule; mean ± SD, n = 14
QUANTITY NAME: AUC(0-inf) (ng·h/mL)

I: CC[C@H](C)C(=O)O[C@H]1C[C@@H](C)C=C2C=C[C@H](C)[C@H](CC[C@@H]3C[C@@H](O)CC(=O)O3)[C@H]21 [Pure lovastatin, lovastatin, reference compound]
II: CC[C@H](C)C(=O)O[C@H]1C[C@@H](C)C=C2C=C[C@H](C)[C@H](CC[C@@H](O)C[C@@H](O)CC(=O)O)[C@H]21
# query: argmin of AUC(0-inf) over I and II Answer by stating the label of the chosen item.
I
